experiment: chemical recovery by SPE of plasma after PDMS sampling; higher = better extraction; details: pooled human plasma; extraction method: HLB SPE of plasma after PES; equilibration time (d): 3;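 further: over 400 spiked chemicals quantified by LC-HRMS or GC-HRMS via internal standard calibration, recovery relative to spike mix added to unspiked plasma extract to correct matrix effects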
quantity: chemical recovery by SPE of plasma (%)
Number only, in %; omit the unit.

Below, each entry is followed by its recorded chemical recovery by SPE of plasma result.
1) CNC(=O)/C(=N/OC)c1ccccc1COc1cc(C)ccc1C: 9.02
2) CN1C(=O)CN=C(c2ccccc2)c2cc(Cl)ccc21: 6.7
3) CN(Cc1nc2c(N)nc(N)nc2nc1O)c1ccc(C(=O)N[C@@H](CCC(=O)O)C(=O)O)cc1 [7-Hydroxymethotrexate]: 45.7
4) CC1(C)CCC(Cc2ccc(Cl)cc2)C1(O)Cn1cncn1 (stereo not given): 1.76
5) CN1CCN(C2=Nc3cc(Cl)ccc3Nc3ccccc32)CC1: 1.11

Challenge: Quick one: chemical recovery by SPE of plasma of `Brc1cc(Br)c(Oc2cc(Br)c(Br)cc2Br)c(Br)c1` ?
Response given: 1.94

Challenge: Quick one: chemical recovery by SPE of plasma of `C[C@H]1C[C@H]2[C@@H]3CCC4=CC(=O)C=C[C@]4(C)[C@@]3(F)[C@@H](O)C[C@]2(C)[C@@]1(O)C(=O)CCl` ?
Response given: 53.2

Challenge: Quick one: chemical recovery by SPE of plasma of `CCCc1nc(C)c2c(=O)nc(-c3cc(S(=O)(=O)N4CCN(CC)CC4)ccc3OCC)[nH]n12` ?
Response given: 7.22

Challenge: Quick one: chemical recovery by SPE of plasma of `CC(=O)[C@@]1(O)CC[C@H]2[C@@H]3C[C@H](C)C4=CC(=O)C=C[C@]4(C)[C@@]3(F)[C@@H](O)C[C@@]21C` ?
Response given: 48.3
